Assay: Protection index, ratio of TD50 for neurotoxicity in ip dosed mouse to ED50 for ip dosed 6-Hz induced seizure mouse model at 32 mA
Assay type: toxicity, organism-based
Details: in vivo, read-out: Ratio TD50/ED50
endpoint_name: selectivity ratio

Cc1ccccc1/C=C/C(=O)N[C@@H](C)CO    2.86
CC(O)CNC(=O)/C=C/c1ccc(Cl)cc1 (stereo not drawn)    4.26
CCC(CO)NC(=O)/C=C/c1ccc(Cl)cc1 (stereo not drawn)    3.41

* * *

Assay: Neurotoxicity in ip dosed mouse
Assay type: toxicity, organism-based
Settings: in vivo
endpoint_name: TD50 (mg/kg)

Cc1ccccc1/C=C/C(=O)N[C@@H](C)CO    150
CCC(CO)NC(=O)/C=C/c1ccc(Cl)cc1 (stereo unspecified)    196
CC(O)CNC(=O)/C=C/c1ccc(Cl)cc1 (stereo unspecified)    180
CC[C@H](CO)NC(=O)/C=C/c1ccc(Cl)cc1    105
CC[C@@H](CO)NC(=O)/C=C/c1ccc(Cl)cc1    56.4

* * *

Test: Displacement of [3H]D888 from rat cerebral cortex calcium channel L type verapamil binding site measured after 120 mins by scintillation counting method
pIC50: −log10 of the molar value.
endpoint_name: pIC50

COc1ccc(CCN(C)CCCC(C#N)(c2cc(OC)c(OC)c(OC)c2)C(C)C)cc1OC (stereo unspecified) [GALLOPAMIL]    7.82

* * *

Assay: Protection index, ratio of TD50 for neurotoxicity in po dosed Sprague-Dawley rat model to ED50 for po dosed pentylenetetrazole induced seizure Sprague-Dawley rat model
Assay type: toxicity, organism-based
Conditions: in vivo, read-out: Ratio TD50/ED50
endpoint_name: selectivity ratio

Cc1ccccc1/C=C/C(=O)N[C@@H](C)CO    > 7.18

* * *

Test system: Mus musculus
Experiment: Neurotoxicity in mouse assessed as induction of motor impairment at 30 mg/kg, ip measured at 0.5 hrs post dose by rotarod method
Assay type: toxicity, organism-based
Details: in vivo
endpoint_name: Activity

Cc1ccccc1/C=C/C(=O)N[C@H]1CC[C@H](O)CC1    Non-Toxic
Cc1ccc(/C=C/C(=O)NC(C)CO)cc1 (stereo not drawn)    Non-Toxic
CC[C@@H](CO)NC(=O)/C=C/c1ccccc1C    Non-Toxic

* * *

Test system: Rattus norvegicus
Test: Neurotoxicity in Sprague-Dawley rat assessed as behavioral change at 30 mg/kg, po measured at 2 hrs post dose
Assay type: toxicity, organism-based
Settings: in vivo
endpoint_name: Activity

CC(C)(CO)NC(=O)/C=C/c1ccc(Cl)cc1    Non-Toxic
CCC(O)CNC(=O)/C=C/c1ccccc1C (configuration not stated)    Non-Toxic
Cc1ccc(/C=C/C(=O)NC(C)CO)cc1 (configuration not stated)    Non-Toxic
Cc1ccccc1/C=C/C(=O)N[C@@H](C)CO    Non-Toxic
CCC(CO)NC(=O)/C=C/c1ccc(Cl)cc1 (configuration not stated)    Non-Toxic
Cc1ccccc1/C=C/C(=O)N[C@H]1CC[C@H](O)CC1    Non-Toxic
CC[C@@H](CO)NC(=O)/C=C/c1ccccc1C    Non-Toxic
Cc1ccccc1/C=C/C(=O)NC(C)CO (configuration not stated)    Non-Toxic
CC(CO)NC(=O)/C=C/c1ccc(Cl)cc1 (configuration not stated)    Non-Toxic
CC(O)CNC(=O)/C=C/c1ccc(Cl)cc1 (configuration not stated)    Non-Toxic
O=C(/C=C/c1ccc(Cl)cc1)N[C@H]1CC[C@H](O)CC1    Non-Toxic
Cc1ccccc1/C=C/C(=O)N[C@H](C)CO    Non-Toxic
